pIC50: −log10 of the molar value.
Here's a batch of compounds along with measured pIC50 for Bcl-2 (Homo sapiens (Human), UniProt P10415).
Measured endpoint: pIC50

compound="CC1=C(C2=C(C)C(=O)c3c(cc(O)c(O)c3CC(C)C)C2=O)C(=O)c2cc(O)c(O)c(CC(C)C)c2C1=O [Compound 6b]" system="Bcl-2 (Homo sapiens (Human), UniProt P10415)" measured_endpoint=pIC50 observed_measurement=6.60
compound="CC1=C(C2=C(C)C(=O)c3c(cc(O)c(O)c3C(C)C)C2=O)C(=O)c2cc(O)c(O)c(C(C)C)c2C1=O [Compound 6a, reference compound]" system="Bcl-2 (Homo sapiens (Human), UniProt P10415)" measured_endpoint=pIC50 observed_measurement=6.43

* * *

- Test system: H1299 cell line
- Assay name: ATP-LITE cell viability assay, H1299
- Type: cell-based
- Stated conditions: Homo sapiens, NCI-H1299, 72 h, 3 days
Measured endpoint: EC50

sample_smiles=CC1=C(C2=C(C)C(=O)c3c(cc(O)c(O)c3CCCc3ccc(F)cc3)C2=O)C(=O)c2cc(O)c(O)c(CCCc3ccc(F)cc3)c2C1=O observed_measurement="1.91 µM"
sample_smiles=CC1=C(C2=C(C)C(=O)c3c(cc(O)c(O)c3C(=O)NCc3cccc(C)c3)C2=O)C(=O)c2cc(O)c(O)c(C(=O)NCc3cccc(C)c3)c2C1=O observed_measurement="> 30 µM"
sample_smiles=CC1=C(C2=C(C)C(=O)c3c(cc(O)c(O)c3C(=O)Cc3ccccc3)C2=O)C(=O)c2cc(O)c(O)c(C(=O)Cc3ccccc3)c2C1=O observed_measurement="> 30 µM"

* * *

Reported pEC50 values for the following compounds.
- Test system: H1299 cell line
- Assay name: ATP-LITE cell viability assay, H1299
- Type: cell-based
- Stated conditions: Homo sapiens, NCI-H1299, 72 h, 3 days
pEC50: −log10 of the molar value.
Measured endpoint: pEC50

compound="CC1=C(C2=C(C)C(=O)c3c(cc(O)c(O)c3C(=O)NCC(C)c3ccccc3)C2=O)C(=O)c2cc(O)c(O)c(C(=O)NCC(C)c3ccccc3)c2C1=O (stereo not drawn) [Compound 8a]" system="H1299 cell line" measured_endpoint=pEC50 operator_symbol=< observed_measurement=4.52
compound="CC1=C(C2=C(C)C(=O)c3c(cc(O)c(O)c3CCC(C)(C)c3ccccc3)C2=O)C(=O)c2cc(O)c(O)c(CCC(C)(C)c3ccccc3)c2C1=O [Compound 6h]" system="H1299 cell line" measured_endpoint=pEC50 operator_symbol== observed_measurement=5.67
compound="CC1=C(C2=C(C)C(=O)c3c(cc(O)c(O)c3CCc3ccc(OC(F)(F)F)cc3)C2=O)C(=O)c2cc(O)c(O)c(CCc3ccc(OC(F)(F)F)cc3)c2C1=O [Compound 6j]" system="H1299 cell line" measured_endpoint=pEC50 operator_symbol== observed_measurement=5.62

* * *

- Assay name: In vitro microsomal stability
- Stated conditions: Table 4
Reported Microsomal Stability (T = 40 mins) values for the following molecules.
Measured endpoint: Microsomal Stability (T = 40 mins) (%)

molecule="CC1=C(C2=C(C)C(=O)c3c(cc(O)c(O)c3CCc3ccccc3)C2=O)C(=O)c2cc(O)c(O)c(CCc3ccccc3)c2C1=O [Compound 6e]" observed_measurement=89
molecule="CC1=C(C2=C(C)C(=O)c3c(cc(O)c(O)c3C(=O)NCC(C)c3ccccc3)C2=O)C(=O)c2cc(O)c(O)c(C(=O)NCC(C)c3ccccc3)c2C1=O (centres unmarked) [Compound 8a]" observed_measurement=71
molecule="CC1=C(C2=C(C)C(=O)c3c(cc(O)c(O)c3CCCc3ccccc3)C2=O)C(=O)c2cc(O)c(O)c(CCCc3ccccc3)c2C1=O [Compound 6g]" observed_measurement=88
molecule="CC1=C(C2=C(C)C(=O)c3c(cc(O)c(O)c3CCC3CCCCC3)C2=O)C(=O)c2cc(O)c(O)c(CCC3CCCCC3)c2C1=O [Compound 6d]" observed_measurement=98
molecule="CC1=C(C2=C(C)C(=O)c3c(cc(O)c(O)c3CC(C)C)C2=O)C(=O)c2cc(O)c(O)c(CC(C)C)c2C1=O [Compound 6b]" observed_measurement=69
